Just for reference, ChEMBL document CHEMBL1131684 is where these values come from.

Assay: Water solubility of the compound
Type: ADME
Details: buffer
Measured quantity: S (Dilution factor)
State the answer as a number, implicitly in Dilution factor.

Use the examples below as a reference point.
* C=C(C)[C@@H]1CC[C@]2(C(=O)N[C@@H](CCSC)C(=O)O)CC[C@]3(C)[C@H](CC[C@@H]4[C@@]5(C)CC[C@H](O)C(C)(C)[C@@H]5CC[C@]43C)[C@@H]12 | 5
* C=C(C)[C@@H]1CC[C@]2(C(=O)N[C@@H](CCC(=O)OC)C(=O)OC)CC[C@]3(C)[C@H](CC[C@@H]4[C@@]5(C)CC[C@H](O)C(C)(C)[C@@H]5CC[C@]43C)[C@@H]12 | 20
* C=C(C)[C@@H]1CC[C@]2(C(=O)NCC(=O)OC)CC[C@]3(C)[C@H](CC[C@@H]4[C@@]5(C)CC[C@H](O)C(C)(C)[C@@H]5CC[C@]43C)[C@@H]12 | 50

Now for a further compound.
For the compound shown here, `C=C(C)[C@@H]1CC[C@]2(C(=O)N[C@@H](Cc3ccccc3)C(=O)OC)CC[C@]3(C)[C@H](CC[C@@H]4[C@@]5(C)CC[C@H](O)C(C)(C)[C@@H]5CC[C@]43C)[C@@H]12` , give the reported S.
5
